Origin of measurements: PubChem BioAssay (NCI)

System: OVCAR-8 ovarian
procedure.details: NCI-60 one-dose screen, 48 h (100 = growth as untreated, 0 = no growth, -100 = all killed)
particulars: 10 µM unless noted
Compounds without any hit were thinned out: in the full panel of roughly 83,000, 20% have a hit.
Please note: condition met applies when growth is 90% or greater, and condition not met applies otherwise.

>>> df
                                   compound       answer_label
0  OC(CSc1ccccc1)CN1CCN(c2ccc(Cl)cc2)CC1 (stereo unspecified)      condition met
1  COc1cccc2c1C(=O)c1c(O)c3c(c(O)c1C2=O)C[C@@](O)(C(=O)CO)C[C@@H]3OC1CC(OC(C)=O)C(OC(C)=O)C(C)O1 (stereo partly specified)  condition not met
2  CCCOC(=O)c1nc(N(CC2CCCCC2)C(=O)NC)sc1/N=C/c1ccccc1  condition not met
3                       CC(=O)N1CC(=O)NC1=S      condition met
4  CC(C)=C1C=C2CC[C@@H]3[C@](C)(CCC[C@@]3(C)C(=O)O)[C@H]2CC1      condition met

q: # bool: growth of Nc1nc(N)c2cc(Sc3cccc(C(F)(F)F)c3)ccc2n1 >= 90%
a: condition not met

q: # bool: growth of O=[N+]([O-])c1ccc2c(c1)Cc1ccccc1-2 >= 90%
a: condition met

q: # bool: growth of Oc1ccc(Nc2ccc3ccccc3c2)cc1 >= 90%
a: condition not met

* * *

System: NCI-H23 lung
procedure.details: NCI-60 one-dose screen, 48 h (100 = growth as untreated, 0 = no growth, -100 = all killed)
particulars: 10 µM unless noted
Compounds without any hit were thinned out: in the full panel of roughly 83,000, 20% have a hit.
Heads up, the class ranges for growth are class A (below 60%), class B (60% to below 90%), class C (90% or more)

compound	answer.label
COc1ccc2nc3cc([N+](=O)[O-])ccc3c(NNc3ccccc3)c2c1	class B
CC1CC(C)(C)OB(OC(C)CC(C)(C)OB2OC(C)CC(C)(C)O2)O1 (stereo unspecified)	class C
CCCCCCCCCCCCCCCC[N+]1(C)CCCC1c1cccnc1 (stereo unspecified)	class A
S=C(S)OCN1CCOCC1	class C
COc1cc(/C=C/C(=O)CC(=O)/C=C/c2ccc(O)c(OC)c2)ccc1O	class A
C[n+]1ccccc1C[n+]1ccccc1	class C
COc1cc2c(c(OC)c1OC)-c1ccc(NCc3ccccc3)c(=O)cc1[C@@H](NC(C)=O)CC2	class A
Cc1cc(I)nc2ccccc12	class C

q: Which class does CCc1cccc(CC)c1N1C(=O)C=CC1=O fall in?
a: class C

q: Which class does Oc1ccccc1N=Cc1ccccc1 fall in?
a: class B

q: Which class does Cc1cc(C)c([I+]c2c(C)cc(C)cc2C)c(C)c1 fall in?
a: class A

q: Which class does Cc1cc(N/N=C/c2ccccn2)nc2ccccc12 fall in?
a: class A

q: Which class does Oc1ccc(Cl)cc1Cc1cc(Cl)ccc1O fall in?
a: class A

q: Which class does Oc1ccc(Nc2ccc3ccccc3c2)cc1 fall in?
a: class B

* * *

System: OVCAR-3 ovarian
procedure.details: NCI-60 one-dose screen, 48 h (100 = growth as untreated, 0 = no growth, -100 = all killed)
particulars: 10 µM unless noted
Compounds without any hit were thinned out: in the full panel of roughly 83,000, 20% have a hit.
reported.endpoint: growth (%)
Answers are plain numbers, in %.

# example entries with known answers
compound	quantity.unit	experimental.value
Nc1ccc(C(=O)/C=C/c2ccccc2)cc1	%	75.2
CN(C)CC(C)(CN(C)C)C(=O)/C=C/c1c(Cl)cccc1Cl	%	-31.3
O=C(/C=C/c1ccccc1)c1ccccc1O	%	89

Below are some compounds; for each one, tell me its growth.
1. C(=N\Nc1ccc2ccccc2n1)/c1ccccn1
2. CCCCCCCCCCCCCCCCCC1=NCCCN1CCO
3. N#CCc1cccc2ccccc12

a:
[44.7, 114, 120]

Below are some compounds; for each one, tell me its growth.
1. CCOC(=O)C1=C(C(=O)c2ccccc2)C(c2cccc([N+](=O)[O-])c2)C(C(=O)c2ccccc2)=C(C(=O)OCC)N1
2. CCC(=O)c1cc([N+](=O)[O-])c(Br)s1
3. Cc1cc2nc(CC(=O)c3ccncc3)c(=O)[nH]c2cc1C
4. Cc1cc(I)nc2ccccc12
5. CCN(CC)CCNC(Cc1ccccc1)c1ccc(OCc2ccccc2)cc1 (configuration not stated)
6. COc1cc(NC(=O)C2=C(C)NC(C)=C(C(=O)Nc3cc(OC)c(Cl)cc3OC)C2c2cccc([N+](=O)[O-])c2)c(OC)cc1Cl
7. O=[N+]([O-])c1ccc(C(Br)c2ccc([N+](=O)[O-])cc2)cc1
8. NC1=C(Br)C(=O)c2ncccc2C1=O

a:
1: 96.1; 2: 82.4; 3: 112; 4: 130; 5: 95.4; 6: 32.3; 7: 110; 8: -11.9
